This collection of values is drawn from patent US20200216522A1.

# measurement.target: T1, full-length human Tau (Tau441; 2N4R), recombinant (human, UniProt P10636 1-758)
# T1 construct: made in E. coli, His6-Smt3 tag removed; biotinylated through amines for Octet and phage work; also called r-Tau; recombinant Tau
# T1 sequence (P10636 other isoform, or with tags, fused parts or gaps limits assumed): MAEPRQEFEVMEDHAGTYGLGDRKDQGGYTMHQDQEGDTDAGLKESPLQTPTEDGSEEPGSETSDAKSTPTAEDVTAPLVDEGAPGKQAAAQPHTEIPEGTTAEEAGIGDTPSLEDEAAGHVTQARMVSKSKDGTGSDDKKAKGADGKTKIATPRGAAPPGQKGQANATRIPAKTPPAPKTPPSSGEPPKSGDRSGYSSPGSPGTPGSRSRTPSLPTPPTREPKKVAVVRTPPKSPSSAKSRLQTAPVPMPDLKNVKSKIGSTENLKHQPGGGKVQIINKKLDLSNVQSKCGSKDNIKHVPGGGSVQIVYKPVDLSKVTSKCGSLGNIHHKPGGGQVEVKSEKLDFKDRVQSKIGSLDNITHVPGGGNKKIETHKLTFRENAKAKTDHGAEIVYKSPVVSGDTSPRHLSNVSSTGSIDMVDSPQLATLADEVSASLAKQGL
# assay.summary: SPR Biacore
endpoint.name: koff
State the result as a value with its unit after it.

// known answers, use as guide
Clone with L3_7 (antibody, V domains shown, based on hu1C7.v2) VH: EVQLLESGGGLVQPGGSLRLSCAASGFTFSSYGMSWVRQAPGKGLEWVASISGDGGSYIHYADSVKGRFTISRDNSKNTLYLQMNSLRAEDTAVYYCARLPYWGQGTLVTVSS VL: DIVMTQSPDSLAVSLGERATINCKSSQSLLNSGNQKNYLTWYQQKPGQPPKLLIYWASTRESGVPDRFSGSGSGTDFTLTISSLQAEDVAVYYCQQYNAYPLTFGQGTKVEIKR | 0.000817 s⁻¹
Clone with L1_3-4 (antibody, V domains shown, based on hu1C7.v2) VH: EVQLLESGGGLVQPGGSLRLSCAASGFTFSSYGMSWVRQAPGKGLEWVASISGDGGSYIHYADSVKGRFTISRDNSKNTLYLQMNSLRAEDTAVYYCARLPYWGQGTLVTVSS VL: DIVMTQSPDSLAVSLGERATINCKSSQSLHNSGTQKDYLVWYQQKPGQPPKLLIYWASTRESGVPDRFSGSGSGTDFTLTISSLQAEDVAVYYCQQYNSYPLTFGQGTKVEIK | 0.00031 s⁻¹

Input line: What does the data say about its koff? Entry: Clone with L1_3 (antibody, V domains shown, IgG based on hu1C7.v2) VH: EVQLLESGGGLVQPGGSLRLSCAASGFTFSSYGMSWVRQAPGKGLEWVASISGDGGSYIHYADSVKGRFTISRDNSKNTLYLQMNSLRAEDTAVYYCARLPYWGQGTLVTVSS VL: DIVMTQSPDSLAVSLGERATINCKSSQSLHRSGTQKDYLVWYQQKPGQPPKLLIYWASTRESGVPDRFSGSGSGTDFTLTISSLQAEDVAVYYCQQYNSYPLTFGQGTKVEIK
Output line: 0.000133 s⁻¹
